study system: Bt-SARS-CoV-2 Spike Protein (RBD)(R319-F541).mFc (mAb10621-L2) (SARS-CoV-2)
protocol notes: Luminex bead binding, supernatant
endpoint name: Binding signal (MFI)
Write down the numeric answer in MFI and omit the unit.

The cases that follow already have their Binding signal (MFI) on record.
{"columns": ["binder", "Binding signal (MFI)"],
 "data": [
  ["mAb10998 (antibody, V domains shown) VH: EVQLVESGGGLVHPGGSLRLSCAASGLTVSSNYMSWVRQAPGKGLEWVSVIYSGGSTYYADSVKGRFTISRHNSKNTLFLQMNSLRAEDTAVYYCARDRPITGTTLDVWGQGTTVTVSS VL: DIQMTQSPSSLFASVGDRVTITCRASQSISSYLNWYQQKPGKAPKLLIYAASSLQSGVPSRFSGSGSGTDFTLTISSLQPEDFAFYYCQQTYSTPPITFGQGTRLEIK", 2230],
  ["mAb11008 (antibody, V domains shown) VH: EVQLVESGGGLVQPGGSLRLSCAASGFTVSSNYMTWVRQAPGKGLEWVSVIYSGGSTFYADSVKGRFTISRHNSENTLYLQMNSLRAEDTAVYYCARDLAAAGTDYWGQGALVTVSS VL: DIQLTQSPSFLSASVGDRVTITCWASQGISSYLAWYQQKPGKAPKLLIYAASTLQSGVPSRFSGSGSGTEFTLTISSLQPDDFATYYCQHLNSYLYTFGQGTKLEIK", 3050],
  ["mAb11006 (antibody, V domains shown) VH: EVQLVESGGGLVQPGGSLRLSCAASGFIVSRNYMSWVRQAPGKGLEWVSVIYSGGSTFYADSVKGRFTISRHNSKNTLYLQMNSLKAEDTAVYYCARELRGYFDYWGQGTLVTVSS VL: DIQLTQSPSFLSASVGDRVTITCWASQGISSYLAWYQQKPGKAPKLLIYAASTLQSGVPSRFSGSGSGTEFTLTISSLQPEDFATYYCQLLNSYPYTFGQGTKLEIK", 1400]
]}

Record summary for mAb11004 (antibody, V domains shown) VH: QVQLVESGGGVVQPGRSLRLSCVASGFTFSIYGMDWVRQAPGKGLEWVAVISYDGSNKYYADSVKGRFTISRDNSKNTLYLQMNSLRPEDTAVYYCAKDREAAADAFDIWGQGTMVTVSS VL: DIQMTQSPSSVSASVGDRVTITCRASQGISSWLAWYQQKPGKAPKLLIYAASSLHSGVPSRFSGSGSGTDFTLTISSLQPEDFATYYCQQANSFRLTFGGGTKVEIK : reported Binding signal (MFI) = 4300

Data credit: patent US20240043504A1
